- SYSTEM NAME: T1, biotinylated 6His tag-AviTag-linked mature human IL-33 (residues 112 to 270) (human, UniProt O95760 112-270, biotin on the AviTag portion (BirA))
- T1 construct: made in E. coli; also called biotinylated human IL-33 protein
- T1 sequence: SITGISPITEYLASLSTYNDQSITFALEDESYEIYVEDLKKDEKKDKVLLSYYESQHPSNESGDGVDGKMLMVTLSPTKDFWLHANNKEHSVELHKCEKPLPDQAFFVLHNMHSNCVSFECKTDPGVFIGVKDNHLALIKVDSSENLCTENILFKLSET
- METHOD SUMMARY: SPR, IL-33 on chip, Fab supernatant as analyte
Listed next: entries and their corresponding koff.
Write down the numeric answer in s⁻¹ and omit the unit.

[
  {
    "BINDER": "A27-1A06 (Fab) (Fab, V domains shown, Fab secreted by E. coli, tested as culture supernatant; also called V21) VH: EVQLLESGGGLVQPGGSLRLSCAASGFTFSNYYMHWVRQAPGKGLEWVSSISARSSYRYYADSVKGRFTISRDNSKNTLYLQMNSLRAEDTAVYYCARLATRHLAFDIWGQGTLVTVSS VL: QSVLTQPPSASGTPGQRVTISCSGSSSNIGNNAVNWYQQLPGTAPKLLIYASNMRRPGVPDRFSGSKSGTSASLAISGLRSEDEADYYCAAWDDSQKVFVFGGGTKLTVL",
    "READOUT LABEL": "koff",
    "REPORTED MEASUREMENT": "1e-05"
  },
  {
    "BINDER": "A25-3G05 (Fab) (Fab, V domains shown, Fab secreted by E. coli, tested as culture supernatant; also called V16) VH: EVQLLESGGGLVQPGGSLRLSCAASGFTFSHYYMHWVRQAPGKGLEWVSSISALSSYIYYADSVRGRFTISRDNSKNTLYLQMNSLRAEDTAVYYCARLATRRDAFDIWGQGTLVTVSS VL: QSVLTQPPSASGTPGQRVTISCSGSSSNIGNNAVNWYQQLPGTAPKLLIYASNMRGLGVPDRFSGSKSGTSASLAISGLRSEDEADYYCGAWDDSQKVFVFGGGTKLTVL",
    "READOUT LABEL": "koff",
    "REPORTED MEASUREMENT": "1.34e-05"
  }
]

With those in mind, consider the next binder.
Request: Given the entry A28-2F01 (Fab) (Fab, V domains shown, Fab secreted by E. coli, tested as culture supernatant; also called V26) VH: EVQLLESGGGLVQPGGSLRLSCAASGFTFSNYYMHWVRQAPGKGLEWVSSISSRSSHQYYAGSVKGRFTISRDNSKNTLYLQMNSLRAEDTAVYYCARLGLRHDAFDIWGQGTLVTVSS VL: QSVLTQPPSASGTPGQRVTISCSGSSSNIGHNAVWWYQQLPGTAPKLLIYASNMRRMGVPDRFSGSKSGTSASLAISGLRSEDEADYYCAAWDDSQKAVVFGGGTKLTVL , report its measured koff.
Result: 1e-05
